target-under-test: AKR1C3 (Homo sapiens)
Sequence (P42330 whole entry): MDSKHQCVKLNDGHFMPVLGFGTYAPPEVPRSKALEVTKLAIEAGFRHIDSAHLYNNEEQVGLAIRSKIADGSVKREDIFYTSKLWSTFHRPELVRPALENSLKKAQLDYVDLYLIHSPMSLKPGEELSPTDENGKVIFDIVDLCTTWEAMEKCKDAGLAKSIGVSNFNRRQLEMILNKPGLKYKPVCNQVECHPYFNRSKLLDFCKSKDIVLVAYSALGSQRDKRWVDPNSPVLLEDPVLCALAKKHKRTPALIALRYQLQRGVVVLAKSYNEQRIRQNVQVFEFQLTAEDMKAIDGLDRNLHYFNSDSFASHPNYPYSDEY
measurement-type: IC50 (nM)

O=C(O)c1cccc(Nc2ccc([N+](=O)[O-])cc2)c1 33
CC(C)(C)c1ccc(Nc2ccccc2C(=O)O)cc1 38

Origin of the recorded values: paper PMC3298089
